# PROTOCOL_NOTES: Log D (pH7.4 shake flask)
# Type: physicochemical
# CONDITION_DETAILS: pH 7.4; 1-octanol/phosphate buffer shake flask; read-out: mLogD (pH 7.4)
READOUT_NAME: logD

Worked set:
1. CC(C)(C)NC(=O)c1cc(NC(=O)Cc2cc(O)c(C(C)(C)C#N)cc2F)ccn1 = > 4.2
2. CC(C)(C#N)NC(=O)c1cc(NC(=O)Cc2ccc(C(C)(C)C)c(O)c2)ccn1 [93.4 of PCT/GB2019/050209, reference compound] = > 4.1
3. CC(C)(C)NC(=O)c1cc(NC(=O)Cc2cc(O)c(C(C)(C)C)cc2F)ccn1 [91 of PCT/GB2019/050209, reference compound] = > 4.5
4. CC(C)(C#N)NC(=O)c1cc(NC(=O)Cc2cc(O)c(C(C)(C)C)cc2Cl)ccn1 = > 4
5. CC(C)c1cc(C(C)(C)C)c(O)cc1CC(=O)Nc1ccnc(C(=O)NC(C)(C)C)c1 = > 4
6. C#CC(C)(C)NC(=O)c1cc(NC(=O)Cc2cc(O)c(C(C)(C)C)cc2F)ccn1 = > 4

Exam item: Quickly give me recorded logD for CC1(NC(=O)c2cc(NC(=O)Cc3cc(O)c(C(C)(C)CO)cc3Cl)ccn2)CC(F)(F)C1
Marked response: > 4.2

Exam item: Please report logD for the following compound: CC(C)(C)c1cc(F)c(CC(=O)Nc2ccnc(C(=O)NC3(C(F)(F)F)CC3)c2)cc1O
Marked response: > 4
